- targetDesc: T1, ZNF524 ZF1-4 E181A (human, UniProt Q96C55 110-223, E181A)
- T1 sequence: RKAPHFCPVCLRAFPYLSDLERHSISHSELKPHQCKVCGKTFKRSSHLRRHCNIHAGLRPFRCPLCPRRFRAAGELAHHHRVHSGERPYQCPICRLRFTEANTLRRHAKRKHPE
- assayProcedure: ITC; ITC: 20 mM Tris-HCl pH 7.5, 150 mM NaCl, 20 C; pull-down: 50 mM Tris-HCl pH 7.5, 150 mM NaCl, 0.5% IGEPAL, 5 mM MgCl2, 1 mM DTT, salmon sperm DNA, 4 C
- conditions: protein: recombinant; tags: none (GST removed by TEV); blunt
assayReadout: pKd
The read-out pKd is expressed as -log10 of concentration in moles per litre.

Input: Look at this binder and give its reported pKd. TTAGGG 12-bp duplex (dsDNA) DNA 1: GGTTAGGGTTAG DNA 2: CTAACCCTAACC
Output: 6.38
